- assay_target: APOL1 G2 (Homo sapiens, UniProt O14791, DEL388-389)
- Sequence (O14791 with tags, fused parts or gaps DEL388-389): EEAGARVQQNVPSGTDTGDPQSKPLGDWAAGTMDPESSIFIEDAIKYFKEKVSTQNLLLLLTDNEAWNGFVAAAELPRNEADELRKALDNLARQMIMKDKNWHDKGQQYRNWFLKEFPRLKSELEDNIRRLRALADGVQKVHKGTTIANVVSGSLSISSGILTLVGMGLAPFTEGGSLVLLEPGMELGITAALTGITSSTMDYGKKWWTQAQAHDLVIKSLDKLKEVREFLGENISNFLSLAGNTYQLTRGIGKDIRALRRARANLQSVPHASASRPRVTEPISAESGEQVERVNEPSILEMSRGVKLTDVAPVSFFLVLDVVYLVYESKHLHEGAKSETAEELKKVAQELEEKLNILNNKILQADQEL
- method_notes: Rescue of HEK293 cell death caused by overexpression of APOL1 (CellTiter-Glo luminescence), HEK293/T-REx APOL1 G2/clone #2
- test_conditions: reversal of cell death caused by overexpression of APOL1; geometric mean of at least 2 assay runs, † = single assay run (technical duplicate)
endpoint_label: EC50 (nM)
Give bare numbers, in nM.

Items follow; give EC50 for each.
1. C[C@@H]1C[C@H](COc2ccc(S(=O)(=O)C3CNC3)cc2)CN1CCc1cc(Cl)cc(C#N)c1
2. CN=S(C)(=O)c1ccc(OC[C@H]2C[C@@H](C)N(CCc3cccc(C#N)c3)C2)cc1 (single isomer, unassigned) [Compound 158]
3. CC1(O)CN(CCc2cccc(Cl)c2)CC1COc1ccc(S(C)(=O)=O)cc1 (racemic)
4. CN=S(C)(=O)c1ccc(OC[C@@H]2CN(CCc3cc(Cl)cc(C#N)c3)CCN2)cc1 (stereo partly drawn) [Compound 186]

191
39
3570
631

====

- assay_target: APOL1 G2 (Homo sapiens, UniProt O14791, DEL388-389)
- method_notes: Rescue of HEK293 cell death caused by overexpression of APOL1 (CellTiter-Glo luminescence), HEK293/T-REx APOL1 G2/clone #2
- test_conditions: reversal of cell death caused by overexpression of APOL1; geometric mean of at least 2 assay runs, † = single assay run (technical duplicate)
endpoint_label: EC50 (nM)
Give bare numbers, in nM.

Some solved cases for reference:
compound=CS(=O)(=O)c1ccc(OC[C@@H]2CN(CCc3cc(Cl)ccc3OC(F)F)CCN2)cc1 measurement_unit=nM experimental_result=915
compound=CN(c1ccc(OC[C@H](O)CNCCc2cccc(Cl)c2)cc1)S(C)(=O)=O measurement_unit=nM experimental_result=1850
compound="CC1CC(COc2ccc(S(C)(=O)=O)cc2)CN1CCc1cc(Cl)cc(C#N)c1 (single isomer, unassigned) [Compound 202]" measurement_unit=nM experimental_result=89

Each compound below has a recorded value; state its EC50.
1. C[C@H]1CC[C@H](COc2ccc(S(C)(=O)=O)cc2)CN1CCc1cccc(Cl)c1
2. CC(Cc1cccc(Cl)c1)NC[C@@H](O)COc1ccc(N(C)S(C)(=O)=O)cc1 (single isomer, unassigned) [Compound 88]
3. CS(=O)(=O)c1ccc(OCC2CN(CCc3cccc(Cl)c3)CCC2O)cc1 (single isomer, unassigned) [Compound 30]
4. CC1CC(COc2ccc(S(C)(=O)=O)cc2)CN1CCc1cc(Cl)cc(C#N)c1 (single isomer, unassigned) [Compound 199]

1. 908
2. 698
3. 2410
4. 2440

====

- assay_target: APOL1 G2 (Homo sapiens, UniProt O14791, DEL388-389)
- Construct: expressed in transfected cells; host or cells: HEK293 T-REx clonal lines: HEK T-REx/GCaMP6f/APOL1 G2 K6.3 in A1, HEK293/T-REx APOL1 G2/clone #2 in A2
- method_notes: APOL1 calcium transport inhibition assay (GCaMP6f calcium influx, FLIPR) in HEK T-REx/GCaMP6f/APOL1 G2 K6.3 cells
- Format: cell-based
- test_conditions: inhibition of APOL1-mediated calcium influx; geometric mean of at least 2 assay runs, † = single assay run (technical duplicate)
endpoint_label: log10(AC50) (log10 of the value in nM)
Log10 applied to AC50; unit prior to transform: nM.

Example entries and their recorded answers appear below.
molecule="CS(=O)(=O)c1ccc(OC[C@H]2CN(CCc3cccc(Cl)c3)CCN2)cc1 [Compound 14]" assay_target="APOL1 G2 (Homo sapiens, UniProt O14791, DEL388-389)" endpoint_label=log10(AC50) experimental_result=3.52
molecule="COC1CCN(CCc2cccc(Cl)c2)CC1COc1ccc(S(C)(=O)=O)cc1 (single isomer, unassigned) [Compound 34]" assay_target="APOL1 G2 (Homo sapiens, UniProt O14791, DEL388-389)" endpoint_label=log10(AC50) experimental_result=3.00
molecule="CC(CN1C[C@@H](COc2ccc(S(C)(=O)=O)cc2)C[C@H]1C)c1cc(Cl)cc(C#N)c1 (single isomer, unassigned) [Compound 143]" assay_target="APOL1 G2 (Homo sapiens, UniProt O14791, DEL388-389)" endpoint_label=log10(AC50) experimental_result=3.50
molecule="CC(Cc1cccc(Cl)c1)NC[C@H](O)COc1ccc(N(C)S(C)(=O)=O)cc1 (single isomer, unassigned) [Compound 96]" assay_target="APOL1 G2 (Homo sapiens, UniProt O14791, DEL388-389)" endpoint_label=log10(AC50) experimental_result=3.58
molecule="CS(=O)(=O)c1ccc(OC[C@@H]2CN(CCc3cc(C#N)cc(C(F)(F)F)c3)CCN2)cc1 [Compound 193]" assay_target="APOL1 G2 (Homo sapiens, UniProt O14791, DEL388-389)" endpoint_label=log10(AC50) experimental_result=3.16

Provide log10(AC50) values for the following items, in order.
1. CC1(C)CC(COc2ccc(S(C)(=O)=O)cc2)CN1CCc1cccc(Cl)c1 (single isomer, unassigned) [Compound 44]
2. CC1CC(COc2ccc(S(C)(=O)=O)cc2)CN1CCc1cccc(Cl)c1 (single isomer, unassigned) [Compound 53]
3. CN(c1ccc(OCC2CN(CCc3cccc(Cl)c3)CCCO2)cc1)S(C)(=O)=O (single isomer, unassigned) [Compound 12]

[3.35, 2.93, 3.38]

List log10(AC50) for every entry below, keeping the order given.
1. COC1CCN(CCc2cccc(Cl)c2)CC1COc1ccc(S(C)(=O)=O)cc1 (single isomer, unassigned) [Compound 36]
2. CC(Cc1cccc(Cl)c1)NC[C@@H](O)COc1ccc(N(C)S(C)(=O)=O)cc1 (single isomer, unassigned) [Compound 89]

4.15
2.65
